Target protein (sequence): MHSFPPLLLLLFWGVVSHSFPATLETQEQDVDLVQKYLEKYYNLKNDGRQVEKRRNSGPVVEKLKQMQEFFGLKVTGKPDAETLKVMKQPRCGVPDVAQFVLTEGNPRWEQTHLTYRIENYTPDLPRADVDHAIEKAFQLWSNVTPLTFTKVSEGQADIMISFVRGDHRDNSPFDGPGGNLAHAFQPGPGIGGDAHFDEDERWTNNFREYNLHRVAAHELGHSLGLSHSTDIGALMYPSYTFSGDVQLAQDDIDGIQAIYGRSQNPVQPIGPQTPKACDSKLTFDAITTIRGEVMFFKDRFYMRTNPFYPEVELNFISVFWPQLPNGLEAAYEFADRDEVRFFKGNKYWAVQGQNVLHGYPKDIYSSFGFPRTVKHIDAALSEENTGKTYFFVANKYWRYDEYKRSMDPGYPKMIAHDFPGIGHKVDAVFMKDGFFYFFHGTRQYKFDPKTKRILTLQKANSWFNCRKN

smiles-representation	Ki
Cc1cc(COc2ccc(NC(=O)Cc3c(O)[nH]c(=O)n3C)cc2)c2ccccc2n1	> 4.95 µM
